B1: Gamma-crystallin S, residues 96 to 176; numbered along this chain, P22914 (parent)
chain: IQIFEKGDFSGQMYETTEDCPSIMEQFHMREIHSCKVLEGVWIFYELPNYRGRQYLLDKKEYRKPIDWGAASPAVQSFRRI

- Variants of: B1
- assay: abundance fitness (aPCA) (normalised: wild type 0, dead -1); higher = more abundant; growth selection in yeast, the domain comes from the species named
- conditionContext: Homo sapiens
Classes (abundance fitness): class 1 = under -0.04, class 2 = from -0.04 up to 0.01, class 3 = 0.01 and over

R30P    class 2
S72Q    class 3
A70R    class 3
Y55F    class 3
R63G    class 3

For the record `G11A` , report the class its abundance fitness corresponds to.
class 3

Field entry: `E5Q`
class 3

Field entry: `S22I`
class 3

Field entry: `A70G`
class 3

Field entry: `I23C`
class 2

Field entry: `E39H`
class 1

Field entry: `Y45I`
class 1

Field entry: `I66L`
class 2

Field entry: `Y45V`
class 1

Field entry: `S10Y`
class 3

Field entry: `V41S`
class 2

Field entry: `C35M`
class 3

Field entry: `R79S`
class 2

Field entry: `F44L`
class 2

Field entry: `F44Y`
class 1

Field entry: `S10I`
class 1

Field entry: `D58F`
class 1

Field entry: `E18W`
class 3

Field entry: `I66T`
class 1

Field entry: `I23G`
class 1

Field entry: `R30K`
class 3

Field entry: `E15T`
class 1

Field entry: `L57F`
class 1

Data provenance: the Human Domainome abundance scans (Beltran et al. 2025)
